B1: ZNF24 (parent)
chain: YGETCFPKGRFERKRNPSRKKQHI

Variants of: B1
METHOD DESCRIPTION: protein stability index of a GFP-peptide fusion (GPS, HEK-293T) (PSI 1-6); higher = more stable;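 note: lentivirally expressed fusions sorted by FACS into six bins by GFP to DsRed ratio, PSI derived from sequencing read proportions per bin multiplied by bin number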
RECORDED CONDITIONS: c terminus: a fixed tail appended
Below, each entry is listed with its recorded protein stability index.
METRIC NAME: protein stability index

    changes              metric_name  result_number
 0      T4E  protein stability index           3.24
 1     R15E  protein stability index           2.93
 2      E3H  protein stability index           2.56
 3      G9M  protein stability index           2.18
 4     R13V  protein stability index           2.19
 5      C5S  protein stability index            3.7
 6     K20N  protein stability index           3.08
 7      C5F  protein stability index           3.83
 8      G2H  protein stability index           2.15
 9     R19H  protein stability index           3.22
10      G9F  protein stability index           2.29
11      P7G  protein stability index           2.82
12     K21R  protein stability index           2.85
13     Q22A  protein stability index           2.97
14     I24C  protein stability index            2.9
15      K8E  protein stability index           2.96
16     K21D  protein stability index           3.11
17      Y1M  protein stability index           3.99
18     S18Y  protein stability index           2.02
19     R19Y  protein stability index           2.68
20     R13E  protein stability index            3.1
21     N16A  protein stability index            2.5
